The values you see were collected from patent US11173162B2.

Subject Of Test: FGFR4 (Homo sapiens (Human), UniProt P22455)
Sequence (P22455 22-802): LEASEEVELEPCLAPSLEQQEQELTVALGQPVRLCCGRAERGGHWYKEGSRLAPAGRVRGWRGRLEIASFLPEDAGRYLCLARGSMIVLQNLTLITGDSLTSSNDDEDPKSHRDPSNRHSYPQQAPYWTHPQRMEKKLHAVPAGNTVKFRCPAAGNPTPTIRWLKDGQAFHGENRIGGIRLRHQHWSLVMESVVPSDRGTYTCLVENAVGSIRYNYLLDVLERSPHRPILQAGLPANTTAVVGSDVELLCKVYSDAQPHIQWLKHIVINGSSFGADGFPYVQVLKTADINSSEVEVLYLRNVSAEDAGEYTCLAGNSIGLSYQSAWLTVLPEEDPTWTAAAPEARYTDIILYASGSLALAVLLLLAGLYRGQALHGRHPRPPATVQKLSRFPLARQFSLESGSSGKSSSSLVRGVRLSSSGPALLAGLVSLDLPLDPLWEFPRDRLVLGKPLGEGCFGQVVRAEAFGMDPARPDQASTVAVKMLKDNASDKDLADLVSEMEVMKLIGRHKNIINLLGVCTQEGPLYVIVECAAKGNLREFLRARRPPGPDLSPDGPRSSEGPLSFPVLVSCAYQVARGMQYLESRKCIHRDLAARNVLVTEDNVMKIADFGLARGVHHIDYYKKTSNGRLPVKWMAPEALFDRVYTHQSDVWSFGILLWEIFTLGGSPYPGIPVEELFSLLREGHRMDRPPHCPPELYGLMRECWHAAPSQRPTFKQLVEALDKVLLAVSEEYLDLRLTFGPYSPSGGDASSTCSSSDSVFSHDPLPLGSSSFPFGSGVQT
Assay Name: FGFR Enzymatic Assay (FRET peptide phosphorylation), FGFR4
Assay type: biochemical
Setup Conditions: IC50 ratio showing FGFR4 selectivity; Table 2, pre-incubated for 4 hours
Outcome Measure: FGFR1/FGFR4

Req: Look at this compound and give its reported FGFR1/FGFR4. `COc1cc(OC)c(F)c(N2Cc3cnc(-c4cncc(F)c4)cc3C3(CC3)C2=O)c1F`
Resp: >10

Req: Field request: FGFR1/FGFR4 | item: `COc1cncc(-c2cc3c(cn2)CN(c2c(F)c(OC)cc(OC)c2F)C(=O)C32CC2)c1`
Resp: >25

Req: Any idea what FGFR1/FGFR4 was measured for `COc1cc(OC)c(F)c(N2Cc3cnc(-c4cc(N)ccc4C)cc3C3(CC3)C2=O)c1F` ?
Resp: >25

Next:
Req: Please look up its FGFR1/FGFR4: `COc1cc(OC)c(F)c(N2Cc3cnc(-c4cc(N)cnc4C)cc3C3(CC3)C2=O)c1F`
Resp: >50

Req: Entry under review: `COc1cc(OC)c(F)c(N2Cc3cnc(-c4cc(N)ccc4C#N)cc3C3(CC3)C2=O)c1F` . Reported FGFR1/FGFR4?
Resp: >25

Req: What value of measured FGFR1/FGFR4 is listed for `COc1cc(OC)c(F)c(N2Cc3cnc(-c4nn(CC#N)cc4C#N)cc3C3(CC3)C2=O)c1F` ?
Resp: >100

Req: // FGFR1/FGFR4 lookup, key: `COc1cc(OC)c(F)c(N2Cc3cnc(-c4cncc(-n5ccnc5)c4)cc3C3(CC3)C2=O)c1F`
Resp: >50

Req: For the compound shown here, `COc1cc(OC)c(F)c(N2Cc3cnc(-c4cncc(C#N)c4)cc3C3(CC3)C2=O)c1F` , give the reported FGFR1/FGFR4.
Resp: >50
